Molecular target: UniProt Q02763
Sequence (Q02763 23-1124, species assumed): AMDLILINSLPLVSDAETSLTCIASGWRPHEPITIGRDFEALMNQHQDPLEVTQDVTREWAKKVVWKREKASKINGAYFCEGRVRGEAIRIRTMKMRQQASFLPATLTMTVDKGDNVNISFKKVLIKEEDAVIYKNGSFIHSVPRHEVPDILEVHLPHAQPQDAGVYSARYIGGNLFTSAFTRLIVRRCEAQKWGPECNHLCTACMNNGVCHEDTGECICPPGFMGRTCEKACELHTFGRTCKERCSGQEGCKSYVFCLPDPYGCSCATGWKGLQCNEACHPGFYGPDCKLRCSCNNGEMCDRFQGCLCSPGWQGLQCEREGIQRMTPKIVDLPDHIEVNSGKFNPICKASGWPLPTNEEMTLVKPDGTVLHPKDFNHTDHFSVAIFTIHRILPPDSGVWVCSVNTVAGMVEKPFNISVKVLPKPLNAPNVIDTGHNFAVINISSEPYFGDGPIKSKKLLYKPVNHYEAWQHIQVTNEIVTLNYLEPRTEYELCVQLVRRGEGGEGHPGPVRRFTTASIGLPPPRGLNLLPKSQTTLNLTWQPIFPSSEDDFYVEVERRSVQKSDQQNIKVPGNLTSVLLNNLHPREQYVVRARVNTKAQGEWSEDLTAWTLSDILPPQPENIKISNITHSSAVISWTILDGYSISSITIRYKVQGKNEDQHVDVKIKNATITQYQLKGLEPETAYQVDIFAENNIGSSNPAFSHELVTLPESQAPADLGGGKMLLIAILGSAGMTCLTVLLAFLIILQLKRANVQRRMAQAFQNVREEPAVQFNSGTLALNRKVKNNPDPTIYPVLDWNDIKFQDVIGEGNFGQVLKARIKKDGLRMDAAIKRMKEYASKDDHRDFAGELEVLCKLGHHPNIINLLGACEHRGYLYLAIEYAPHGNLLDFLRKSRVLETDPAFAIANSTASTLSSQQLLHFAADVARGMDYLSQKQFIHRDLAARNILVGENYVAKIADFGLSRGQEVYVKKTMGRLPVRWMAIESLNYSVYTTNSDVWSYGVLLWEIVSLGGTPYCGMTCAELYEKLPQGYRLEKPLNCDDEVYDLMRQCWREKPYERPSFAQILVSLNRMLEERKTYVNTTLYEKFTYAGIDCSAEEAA
Test: Tie2 inhibition screen
Type: biochemical
Details: Table 5; ATP at or close to Km
Measured parameter: pIC50
Schema: pIC50 number; meaning minus log10 of the concentration expressed in molar units.

// recorded pIC50 for Cc1cc(Nc2cc(N3CC(F)(C4CC4)C3)nc(Sc3ccc(NC(=O)CC(F)(F)F)cc3)n2)[nH]n1 [Compound I-14] : 7.05

* * *

Target: TrkA (Homo sapiens, UniProt P04629)
Sequence (P04629 33-796, species assumed): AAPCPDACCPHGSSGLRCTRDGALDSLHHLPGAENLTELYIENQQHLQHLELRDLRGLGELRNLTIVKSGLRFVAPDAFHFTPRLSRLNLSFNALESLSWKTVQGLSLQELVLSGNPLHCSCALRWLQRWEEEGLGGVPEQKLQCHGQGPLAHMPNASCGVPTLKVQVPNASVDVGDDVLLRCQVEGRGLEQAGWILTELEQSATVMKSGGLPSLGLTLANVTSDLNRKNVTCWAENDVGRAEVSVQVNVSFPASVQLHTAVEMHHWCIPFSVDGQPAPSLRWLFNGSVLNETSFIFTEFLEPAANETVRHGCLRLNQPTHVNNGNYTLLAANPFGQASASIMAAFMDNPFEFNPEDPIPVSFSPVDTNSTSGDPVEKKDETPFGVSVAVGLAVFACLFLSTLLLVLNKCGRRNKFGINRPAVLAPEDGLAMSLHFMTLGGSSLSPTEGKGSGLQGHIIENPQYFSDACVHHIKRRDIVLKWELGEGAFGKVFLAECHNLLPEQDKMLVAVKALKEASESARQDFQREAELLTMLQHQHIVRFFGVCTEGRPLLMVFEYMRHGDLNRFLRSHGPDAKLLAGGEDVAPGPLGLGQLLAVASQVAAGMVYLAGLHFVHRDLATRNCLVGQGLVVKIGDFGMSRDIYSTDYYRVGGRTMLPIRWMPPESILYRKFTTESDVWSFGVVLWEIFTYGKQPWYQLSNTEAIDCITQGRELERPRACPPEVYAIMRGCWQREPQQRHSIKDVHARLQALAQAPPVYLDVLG
Experiment: TrkA inhibition screen
Type: biochemical
Conditions: Table 5; ATP at or close to Km
Measured parameter: IC50 (nM)
Note: unit nM is implicit; provide only the numeric part.

The molecule `Cc1cc(Nc2cc(N3CC(F)(C4CC4)C3)nc(Sc3ccc(NC(=O)CC(F)(F)F)cc3)n2)[nH]n1` showed IC50 equal to 18
